Molecular target: Prostaglandin G/H synthase 2 (Ovis aries)
Sequence (P79208 whole entry): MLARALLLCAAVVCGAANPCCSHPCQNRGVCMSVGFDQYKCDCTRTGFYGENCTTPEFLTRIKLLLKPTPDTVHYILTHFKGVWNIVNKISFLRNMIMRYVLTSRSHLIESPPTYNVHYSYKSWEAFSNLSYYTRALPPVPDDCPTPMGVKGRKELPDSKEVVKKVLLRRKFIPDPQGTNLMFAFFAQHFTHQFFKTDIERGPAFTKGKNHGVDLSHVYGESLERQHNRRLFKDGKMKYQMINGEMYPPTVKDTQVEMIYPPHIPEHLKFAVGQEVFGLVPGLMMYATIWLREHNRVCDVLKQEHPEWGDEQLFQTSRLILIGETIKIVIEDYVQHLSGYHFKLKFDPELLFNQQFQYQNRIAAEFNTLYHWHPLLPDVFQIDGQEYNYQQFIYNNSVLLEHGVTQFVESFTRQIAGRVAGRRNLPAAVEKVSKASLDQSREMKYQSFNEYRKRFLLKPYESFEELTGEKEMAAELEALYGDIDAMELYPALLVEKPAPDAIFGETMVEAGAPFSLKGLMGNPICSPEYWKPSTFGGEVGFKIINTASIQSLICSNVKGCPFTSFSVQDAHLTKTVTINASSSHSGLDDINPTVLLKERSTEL
Assay: Inhibition of recombinant ovine COX2 catalytic activity using arachidonic acid as substrate preincubated for 5 mins followed by substrate and hemin addition measured after 2 mins by colorimetric method
property: IC50

Cc1onc(-c2ccc(Cl)o2)c1-c1ccccc1 : > 50 µM

Q: Hello, I am looking for reported IC50 with Prostaglandin G/H synthase 2 (Ovis aries) for COc1ccc(-c2noc(CC(=O)O)c2-c2ccc(OC)cc2)cc1 . Could you help?
Result: > 50 µM

Origin of the recorded values: ChEMBL document CHEMBL4130354
